target: Adenosine receptor A2b (Homo sapiens); assay: Inhibition of human adenosine A2B receptor expressed in CHO cells assessed as decrease in cellular cAMP level after 20 to 25 mins
reported-endpoint: IC50 (nM)
Report the figure in nM without appending any unit label.

# example entries with known answers
| smiles-string | target-or-test-system | IC50 [nM] |
| --- | --- | --- |
| CCN(C(C)=O)c1ccc(OC)c2nc(NC(=O)C3CCN(Cc4cccc(C(F)(F)F)c4)CC3)sc12 | Adenosine receptor A2b (Homo sapiens) | 44 |
| CCN(C(C)=O)c1ccc(OC)c2nc(NC(=O)[C@H]3CCN(C(=O)c4cccc(C(F)(F)F)c4)C3)sc12 | Adenosine receptor A2b (Homo sapiens) | 41 |
| CCN(C(C)=O)c1ccc(OC)c2nc(NC(=O)C3CCN(S(=O)(=O)c4cccc(C(F)(F)F)c4)CC3)sc12 | Adenosine receptor A2b (Homo sapiens) | 49 |
| CCN(C(C)=O)c1ccc(OC)c2nc(NC(=O)[C@H]3CC[C@@H](NS(=O)(=O)c4cccc(C(F)(F)F)c4)CC3)sc12 | Adenosine receptor A2b (Homo sapiens) | 16 |
| CCN(C(C)=O)c1ccc(OC)c2nc(NC(=O)[C@@H]3CC[C@H](NC(=O)c4cccc(C(F)(F)F)c4)C3)sc12 | Adenosine receptor A2b (Homo sapiens) | 8 |
| CCN(C(C)=O)c1ccc(OC)c2nc(NC(=O)N3CCC(c4cccc(C(F)(F)F)c4)CC3)sc12 | Adenosine receptor A2b (Homo sapiens) | 18 |
| CCN(C(C)=O)c1ccc(OC)c2nc(NC(=O)[C@@H]3CCN(S(=O)(=O)c4cccc(C(F)(F)F)c4)C3)sc12 | Adenosine receptor A2b (Homo sapiens) | 42 |

Next molecule, IC50 to be filled in.
GET /values?readout=IC50&item= "CCN(C(C)=O)c1ccc(OC)c2nc(NC(=O)[C@@H]3CCN(Cc4cccc(C(F)(F)F)c4)C3)sc12" 72

* * *

Molecular target: Adenosine receptor A2b (Homo sapiens, UniProt P29275)
Sequence (P29275 whole entry): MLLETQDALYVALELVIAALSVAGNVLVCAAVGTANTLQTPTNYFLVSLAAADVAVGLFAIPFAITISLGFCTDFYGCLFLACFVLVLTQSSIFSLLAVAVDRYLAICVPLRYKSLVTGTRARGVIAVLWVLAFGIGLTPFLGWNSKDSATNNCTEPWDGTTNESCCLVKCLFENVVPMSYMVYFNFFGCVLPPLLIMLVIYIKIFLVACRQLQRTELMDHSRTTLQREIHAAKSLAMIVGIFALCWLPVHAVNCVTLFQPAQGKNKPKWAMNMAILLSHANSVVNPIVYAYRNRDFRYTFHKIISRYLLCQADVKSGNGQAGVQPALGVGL
reported-endpoint: Ki (nM)
Report the figure in nM without appending any unit label.

| smiles-string | reported-endpoint | measurement |
| --- | --- | --- |
| CCN(C(C)=O)c1ccc(OC)c2nc(NC(=O)[C@@H]3CCN(C(=O)c4cccc(C(F)(F)F)c4)C3)sc12 | Ki | 18 |

Next molecule, Ki to be filled in.
GET /values?readout=Ki&item= "CCN(C(C)=O)c1ccc(OC)c2nc(NC(=O)N3CCC(O)(c4cccc(C(F)(F)F)c4)CC3)sc12" 5

* * *

molecular target: Adenosine receptor A2b (Homo sapiens, UniProt P29275); test: Inhibition of human adenosine A2B receptor expressed in CHO cells assessed as decrease in cellular cAMP level after 20 to 25 mins
reported-endpoint: IC50

| molecule | IC50 |
| --- | --- |
| CCN(C(C)=O)c1ccc(OC)c2nc(NC(=O)C3CCN(C(=O)c4cccc(C(F)(F)F)c4)CC3)sc12 | 17 nM |

GET /values?readout=IC50&item= "CCN(C(C)=O)c1ccc(OC)c2nc(NC(=O)[C@@H]3CC[C@@H](NC(=O)c4cccc(C(F)(F)F)c4)C3)sc12" 8 nM

GET /values?readout=IC50&item= CCN(C(C)=O)c1ccc(OC)c2nc(NC(=O)[C@@H]3CC[C@H](NCc4cccc(C(F)(F)F)c4)C3)sc12 (relative stereo) 19 nM

GET /values?readout=IC50&item= "CCN(C(C)=O)c1ccc(OC)c2nc(NC(=O)N3CCC(S(=O)(=O)c4cccc(C(F)(F)F)c4)CC3)sc12" 20 nM

GET /values?readout=IC50&item= "CCN(C(C)=O)c1ccc(OC)c2nc(NC(=O)[C@H]3CC[C@@H](NC(=O)c4cccc(C(F)(F)F)c4)CC3)sc12" 26 nM

GET /values?readout=IC50&item= "CCN(C(C)=O)c1ccc(OC)c2nc(NC(=O)[C@@H]3CCN(C(=O)c4cccc(C(F)(F)F)c4)C3)sc12" 14 nM

GET /values?readout=IC50&item= "CCN(C(C)=O)c1ccc(OC)c2nc(NC(=O)[C@H]3CC[C@H](NC(=O)c4cccc(C(F)(F)F)c4)CC3)sc12" 28 nM

GET /values?readout=IC50&item= "CCN(C(C)=O)c1ccc(OC)c2nc(NC(=O)N3CCC(O)(c4cccc(C(F)(F)F)c4)CC3)sc12" 8 nM

Numbers sourced from ChEMBL document CHEMBL1759892.
